# MEASUREMENT DESCRIPTION: 4 hr in-vivo study: meloxicam plasma concentration after oral delivery to rats
# ASSAY CONTEXT: rat, time 45 min
Task for the reader: assign each of the following compounds its reported meloxicam plasma concentration.
Answers are plain numbers, in µg/mL.

Use the examples below as a reference point.
{"TEST SMILES": "Cc1cnc(NC(=O)C2=C(O)c3ccccc3S(=O)(=O)N2C)s1.Cc1cnc(NC(=O)C2=C(O)c3ccccc3S(=O)(=O)N2C)s1.O=C(O)CCCCC(=O)O", "meloxicam plasma concentration / µg/mL": 28.37}
{"TEST SMILES": "Cc1cnc(NC(=O)C2=C(O)c3ccccc3S(=O)(=O)N2C)s1.Cc1cnc(NC(=O)C2=C(O)c3ccccc3S(=O)(=O)N2C)s1.O=C(O)C[C@H](O)C(=O)O", "meloxicam plasma concentration / µg/mL": 30.38}

Could you now look at the following compound, please?
Query block: Quote meloxicam plasma concentration reported for Cc1cnc(NC(=O)C2=C(O)c3ccccc3S(=O)(=O)N2C)s1.O=C(O)c1ccccc1O please.
Result block: 40.48
